Each entry below carries its recorded pIC50.
target: AiWssI^ΔN (Achromobacter insuavis, UniProt A0A6J5I893); experiment: HTS MU-Ac fluorescence esterase dose-response assay; type: biochemical; details: MU-Ac as esterase substrate
Sequence (A0A6J5I893 entry or part of it, stated change not applied): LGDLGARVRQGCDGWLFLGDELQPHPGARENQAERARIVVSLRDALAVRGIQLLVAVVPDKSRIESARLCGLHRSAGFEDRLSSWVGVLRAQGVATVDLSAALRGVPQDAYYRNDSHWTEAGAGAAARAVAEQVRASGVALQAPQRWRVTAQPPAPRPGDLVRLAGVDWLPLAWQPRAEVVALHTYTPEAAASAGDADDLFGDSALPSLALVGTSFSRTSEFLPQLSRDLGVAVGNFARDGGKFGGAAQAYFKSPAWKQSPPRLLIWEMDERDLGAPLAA
pIC50: −log10 of the molar value.
ASSAY METRIC: pIC50

1) Cc1nc(N2CCCCC2)sc1/C=N/Nc1ccc(C(=O)O)cc1 [Compound 8]
4.04
2) N#CC(C#N)=C(N)/C(C#N)=C/c1ccc(O)cc1 [Compound 1]
5.00
3) CCOC(=O)NC(=O)/C(C#N)=C/c1ccc(N(C)C)cc1 [Compound 2]
4.22
4) CN1CCN(c2ccc(NC(=O)c3cc4sc(Nc5ccccc5)nc4s3)cn2)CC1 [Compound 4]
4.26
5) Cn1cccc1/C=C(/C#N)c1nnc(-c2ccccc2)n1C [Compound 3]
4.07
6) CN1/C(=C/C(=O)Cn2cc(S(=O)(=O)N3CCCC3)ccc2=O)C(C)(C)c2ccccc21 [Compound 6]
4.14
7) CC(=O)Nc1ccc(S(=O)(=O)Nc2ccc([N+](=O)[O-])cc2)cc1 [Compound 7]
4.00
8) O=C1NC(=O)c2ccccc2/C1=C\C=Cc1ccco1 [Compound 5]
4.28

====

Quick list: pKi per entry.
target: AiWssI^ΔN (Achromobacter insuavis, UniProt A0A6J5I893)
pKi: −log10 of the molar value.
ASSAY METRIC: pKi

1. Cn1cccc1/C=C(/C#N)c1nnc(-c2ccccc2)n1C [Compound 3]
4.66
2. CCOC(=O)NC(=O)/C(C#N)=C/c1ccc(N(C)C)cc1 [Compound 2]
4.92
3. N#CC(C#N)=C(N)/C(C#N)=C/c1ccc(O)cc1 [Compound 1]
4.82
